Assay procedure: Tmax in Sprague-Dawley rat at 10 mg/kg administered via oral gavage after 1 to 24 hrs by HPLC-MS/MS method
Type: ADME, organism-based
Measurement parameters: in vivo
Observable: Tmax (h)

[
  {
    "Structure": "COc1ccccc1-n1ccnc1/C=C/C(=O)/C=C/c1nccn1-c1ccccc1OC",
    "Obs value": 2.67
  }
]

###

Assay procedure: Metabolic stability in rat liver microsomes in presence of NADPH and UGT at 60 mins by UHPLC-TSQ mass spectrometer
Type: ADME, microsome
Measurement parameters: 1 h
Stability: recorded values
Observable: Stability (nM)

[
  {
    "Structure": "COc1ccccc1-n1ccnc1/C=C/C(=O)/C=C/c1nccn1-c1ccccc1OC",
    "Obs value": 757.1
  },
  {
    "Structure": "COc1cc(/C=C/C(=O)CC(=O)/C=C/c2ccc(O)c(OC)c2)ccc1O",
    "Obs value": 9.5
  },
  {
    "Structure": "CC(C)CCn1ccnc1/C=C/C(=O)/C=C/c1nccn1CCC(C)C",
    "Obs value": 296
  },
  {
    "Structure": "O=C(/C=C/c1nccn1-c1ccccc1)/C=C/c1nccn1-c1ccccc1",
    "Obs value": 19.6
  }
]

###

Assay procedure: Cmax in Sprague-Dawley rat at 10 mg/kg administered via oral gavage after 1 to 24 hrs by HPLC-MS/MS method
Type: ADME, organism-based
Set-up: dose 10 mg/kg, route oral
Measurement parameters: in vivo

[
  {
    "Structure": "COc1ccccc1-n1ccnc1/C=C/C(=O)/C=C/c1nccn1-c1ccccc1OC",
    "Cmax / nM": 350
  }
]

###

Assay procedure: Terminal elimination rate constant in Sprague-Dawley rat at 10 mg/kg administered via oral gavage after 1 to 24 hrs by HPLC-MS/MS method
Assay type: ADME, organism-based
Measurement parameters: in vivo, read-out: LambdaZ (converted)
Observable: k el (s⁻¹)

[
  {
    "Structure": "COc1ccccc1-n1ccnc1/C=C/C(=O)/C=C/c1nccn1-c1ccccc1OC",
    "Observable": "k el",
    "Value units": "s⁻¹",
    "Obs value": "3.89e-05"
  }
]

###

Assay procedure: AUC (0 to t) in Sprague-Dawley rat at 10 mg/kg administered via oral gavage after 1 to 24 hrs by HPLC-MS/MS method
Format: ADME, organism-based
Measurement parameters: in vivo

[
  {
    "Structure": "COc1ccccc1-n1ccnc1/C=C/C(=O)/C=C/c1nccn1-c1ccccc1OC",
    "AUC(0-t)": "1750 ng·h/mL"
  }
]

###

Assay procedure: Metabolic stability in rat liver microsomes in presence of NADPH and UGT at 45 mins by UHPLC-TSQ mass spectrometer
Format: ADME, microsome
Measurement parameters: 0.75 h

[
  {
    "Structure": "O=C(/C=C/c1nccn1-c1ccccc1)/C=C/c1nccn1-c1ccccc1",
    "Stability (nM)": 34.8
  },
  {
    "Structure": "COc1cc(/C=C/C(=O)CC(=O)/C=C/c2ccc(O)c(OC)c2)ccc1O",
    "Stability (nM)": 17.6
  },
  {
    "Structure": "CC(C)CCn1ccnc1/C=C/C(=O)/C=C/c1nccn1CCC(C)C",
    "Stability (nM)": 387.9
  },
  {
    "Structure": "COc1ccccc1-n1ccnc1/C=C/C(=O)/C=C/c1nccn1-c1ccccc1OC",
    "Stability (nM)": 827.8
  }
]

Hello, the source for this data is ChEMBL document CHEMBL4229540, in case you need it.
